Target: T1, human S100A4 dimer (Homo sapiens, UniProt P26447 1-101)
T1 construct: In the SPR it was captured on an anti-His surface, so it carried a His tag; also called recombinant human S100A4 dimer
T1 sequence (P26447 whole entry, one chain of several): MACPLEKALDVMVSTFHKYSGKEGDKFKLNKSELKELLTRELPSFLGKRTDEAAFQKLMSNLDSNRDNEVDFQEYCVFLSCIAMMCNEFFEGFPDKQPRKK
Assay: SPR, Biacore T200, 25 C; S100A4 captured via anti-His, antibody as analyte (0.78-200 nM), 1:1 fit
Protocol: Quantitative, kinetic analysis of the interactions between 14 humanized antibodies and 2 control antibodies with the human S100A4 dimer were performed using surface plasmon resonance (SPR). The analysis was performed using a Biacore T200 instrument, at 25° C. analysis temperature, at a flow rate of 50 μl/min for quantitative kinetic interaction analyses.
kon values by entry
Write it as a number; the unit M⁻¹ s⁻¹ goes unstated.

Check out these entries, answers already filled in.
| binder | kon [M⁻¹ s⁻¹] |
| --- | --- |
| VH1_H43Ser VL3 (antibody, V domains shown) VH: QVQLQESGPGLVKPSQTLSLTCTVSGDSFTNDYYWNWIRQHPGSGLEWIGHIGYGGNINYNPSLKNRLSMSRDTSKNQFSLKLSSVTAADTAVYYCTRESFYDGYPFDYWGQGTLVTVSS VL: DIQMTQSPSSLSASVGDRVTITCRASQDIRNYLNWYQQKPGKAPKLLLYYTSRLHSGVPSRFSGSGSGTDYTLTISSLQPEDFATYYCQQGNSLPRTFGGGTKVEIK | 211000 |
| VH0 VL0: the VH and VL regions of 6B12 comprised in a humanized IgG4 isotype framework (antibody, V domains shown) VH: DVQLQESGPGLVKPSQSLSLTCSVTGDSFTNDYYWNWIRQFPGSKLEWMGHIGYGGNINYNPSLKNRISITRDTSKNQFFLRLTSVTTEDTATYYCTRESFYDGYPFDYWGQGTLVTVSA VL: DIQMTQTTSSLSASLGDRVTISCRASQDIRNYLNWYQQRPGGTLKLLIYYTSRLHSGVPSRFSGSGSGTDYSLTISNLEQEDIATYFCQQGNSLPRTFGGGTKLEIK | 229000 |
| 6B12, mouse monoclonal IgG1 anti-S100A4 antibody (antibody, V domains shown, Mouse IgG1; also called 6B12 mIgG1; 6B12 IgG1) VH: DVQLQESGPGLVKPSQSLSLTCSVTGDSFTNDYYWNWIRQFPGSKLEWMGHIGYGGNINYNPSLKNRISITRDTSKNQFFLRLTSVTTEDTATYYCTRESFYDGYPFDYWGQGTLVTVSA VL: DIQMTQTTSSLSASLGDRVTISCRASQDIRNYLNWYQQRPGGTLKLLIYYTSRLHSGVPSRFSGSGSGTDYSLTISNLEQEDIATYFCQQGNSLPRTFGGGTKLEIK | 124000 |
| VH1 VL3 (antibody, V domains shown, Humanized antibody) VH: QVQLQESGPGLVKPSQTLSLTCTVSGDSFTNDYYWNWIRQHPGKGLEWIGHIGYGGNINYNPSLKNRLSMSRDTSKNQFSLKLSSVTAADTAVYYCTRESFYDGYPFDYWGQGTLVTVSS VL: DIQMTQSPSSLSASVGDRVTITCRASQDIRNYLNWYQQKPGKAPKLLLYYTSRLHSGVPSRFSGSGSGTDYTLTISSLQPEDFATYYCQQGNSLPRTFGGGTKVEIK | 194000 |

Ask: Reported kon, binder VH1_H40Phe + H44Lys VL3 (antibody, V domains shown) VH: QVQLQESGPGLVKPSQTLSLTCTVSGDSFTNDYYWNWIRQFPGKKLEWIGHIGYGGNINYNPSLKNRLSMSRDTSKNQFSLKLSSVTAADTAVYYCTRESFYDGYPFDYWGQGTLVTVSS VL: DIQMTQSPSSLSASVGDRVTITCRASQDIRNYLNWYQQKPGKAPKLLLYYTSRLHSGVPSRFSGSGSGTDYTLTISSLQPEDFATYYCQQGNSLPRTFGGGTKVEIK : ____
Reply: 231000

Ask: Reported kon, binder VH1 VL0 (antibody, V domains shown) VH: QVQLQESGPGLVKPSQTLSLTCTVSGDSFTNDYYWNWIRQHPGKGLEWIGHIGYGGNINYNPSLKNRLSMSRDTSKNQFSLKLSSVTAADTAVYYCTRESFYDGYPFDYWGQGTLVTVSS VL: DIQMTQTTSSLSASLGDRVTISCRASQDIRNYLNWYQQRPGGTLKLLIYYTSRLHSGVPSRFSGSGSGTDYSLTISNLEQEDIATYFCQQGNSLPRTFGGGTKLEIK : ____
Reply: 313000

Ask: Reported kon, binder VH1 VL3_L44Leu (antibody, V domains shown, Humanized antibody; also called VH1:VL3_Leu44; Leu44) VH: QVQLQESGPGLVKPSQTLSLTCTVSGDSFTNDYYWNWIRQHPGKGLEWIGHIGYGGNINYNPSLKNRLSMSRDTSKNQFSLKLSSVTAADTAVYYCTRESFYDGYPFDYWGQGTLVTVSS VL: DIQMTQSPSSLSASVGDRVTITCRASQDIRNYLNWYQQKPGKALKLLLYYTSRLHSGVPSRFSGSGSGTDYTLTISSLQPEDFATYYCQQGNSLPRTFGGGTKVEIK : ____
Reply: 239000

Ask: Reported kon, binder VH0 VL3 (antibody, V domains shown) VH: DVQLQESGPGLVKPSQSLSLTCSVTGDSFTNDYYWNWIRQFPGSKLEWMGHIGYGGNINYNPSLKNRISITRDTSKNQFFLRLTSVTTEDTATYYCTRESFYDGYPFDYWGQGTLVTVSA VL: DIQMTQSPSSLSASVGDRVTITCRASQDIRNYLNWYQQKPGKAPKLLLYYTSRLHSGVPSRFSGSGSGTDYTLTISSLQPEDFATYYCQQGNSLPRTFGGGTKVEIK : ____
Reply: 191000

Ask: Reported kon, binder VH1_H43Ser + H44Lys VL3 (antibody, V domains shown) VH: QVQLQESGPGLVKPSQTLSLTCTVSGDSFTNDYYWNWIRQHPGSKLEWIGHIGYGGNINYNPSLKNRLSMSRDTSKNQFSLKLSSVTAADTAVYYCTRESFYDGYPFDYWGQGTLVTVSS VL: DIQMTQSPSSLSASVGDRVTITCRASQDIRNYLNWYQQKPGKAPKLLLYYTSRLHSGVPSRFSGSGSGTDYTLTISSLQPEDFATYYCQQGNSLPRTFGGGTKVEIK : ____
Reply: 210000

Ask: Reported kon, binder VH1_H40Phe VL3 (antibody, V domains shown, Humanized antibody; also called VH1_40Phe:VL3; Phe40) VH: QVQLQESGPGLVKPSQTLSLTCTVSGDSFTNDYYWNWIRQFPGKGLEWIGHIGYGGNINYNPSLKNRLSMSRDTSKNQFSLKLSSVTAADTAVYYCTRESFYDGYPFDYWGQGTLVTVSS VL: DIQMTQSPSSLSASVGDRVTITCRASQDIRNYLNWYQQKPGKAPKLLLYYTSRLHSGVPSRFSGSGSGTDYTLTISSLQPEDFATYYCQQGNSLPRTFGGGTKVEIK : ____
Reply: 217000
